- tgt: T1, RHPN1, Q8TCX5
- T1 sequence (Q8TCX5 508-602, limits assumed, looked up): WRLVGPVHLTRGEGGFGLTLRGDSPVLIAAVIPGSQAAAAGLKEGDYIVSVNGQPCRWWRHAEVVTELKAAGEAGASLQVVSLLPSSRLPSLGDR
- assay_summary: holdup assay
- Set-up: key: below the threshold = too weak to quantify, mostly under pKd 3.1 to 4
- condition_context: plain residues with an end cap or a label only (N-terminal biotin on a linker: ado-ado)
readout_kind: pKd
One number for each entry.

For every item in the list below, what is its measured pKd?
1. NLSIEKETKL [ASNSD1, Q9NWL6]
2. PRAEAEDSFL [PDGFRB, P09619]
3. QHKTQLQTLI [BPIFA2, Q96DR5]
4. DDEDRLVIEI [ZNF831, Q5JPB2]
5. RHGSCVETSL [TMEM151B, Q8IW70]
6. LGRSTPQSEV [DGKH, Q86XP1]

[4.76, 4.23, 4.26, 3.53, 5.02, 4.49]
